- measurement protocol: Liver microsomal metabolic stability assay
- Type: in vitro ADME
- condition info: rat liver microsomes, NADPH, 37° C., 0-60 minutes; read-out: Rat microsomal metabolic half-life (t1/2)
metric: half-life at 1 µM (h)

* C[C@H](CCCC(O)c1c(F)cc(F)cc1F)[C@H]1CC[C@H]2[C@@H]3CC[C@H]4[C@@H](O)[C@@H](O)CC[C@]4(C)[C@H]3CC[C@]12C (stereo partly shown) | 1.52
* COc1ccccc1C(O)CCC[C@@H](C)[C@H]1CC[C@H]2[C@@H]3CC[C@H]4[C@@H](O)[C@@H](O)CC[C@]4(C)[C@H]3CC[C@]12C (stereo partly shown) | 1.27
* C[C@H](CCCC(C)(C)O)[C@H]1CC[C@H]2[C@@H]3CC[C@H]4C(=O)[C@@H](O)CC[C@]4(C)[C@H]3CC[C@]12C [compound 238, 3β,25-Dihydroxy-5α-cholest-4-one] | 1.26
* C[C@H](CCCC(C)(C)O)[C@H]1CC[C@@]2(C)C3=C(CC[C@]12C)[C@@]1(C)CC[C@H](O)C(C)(C)[C@@H]1CC3 | 0.139

* * *

- measurement protocol: Liver microsomal metabolic stability assay
- Assay type: in vitro ADME
- condition info: rat liver microsomes, NADPH, 37° C., 0-60 minutes; read-out: Rat microsomal metabolic half-life (t1/2)
metric: half-life at 1 µM (min)

• C[C@H](CCCC(O)c1c(F)cccc1F)[C@H]1CC[C@H]2[C@H]3[C@H](CC[C@]12C)[C@@]1(C)CC[C@H](O)[C@H](O)[C@@H]1CC3(F)F (some centres unmarked) = 24.1
• C[C@H](CCC[C@@H](O)c1ccccc1F)[C@H]1CC[C@H]2[C@@H]3CC[C@H]4[C@@H](O)[C@@H](O)CC[C@]4(C)[C@H]3CC[C@]12C (single isomer, unassigned) = 55.3
• C[C@H](CCCC(C)(C)O)[C@H]1CC[C@H]2[C@@H]3CC[C@H]4C[C@@H](O)CC[C@]4(C)[C@H]3CC[C@]12C = 190
• C[C@H](CCCC(O)c1c(F)cccc1F)[C@H]1CC[C@H]2[C@@H]3CC[C@H]4C(=O)[C@@H](O)CC[C@]4(C)[C@H]3CC[C@]12C (some centres unmarked) = 19
• C[C@H](CCCC(O)c1cccc(F)c1)[C@H]1CC[C@H]2[C@@H]3CC[C@H]4[C@@H](O)[C@@H](O)CC[C@]4(C)[C@H]3CC[C@]12C (some centres unmarked) = 70.1

* * *

- measurement protocol: Liver microsomal metabolic stability assay
- Format: in vitro ADME
- condition info: rat liver microsomes, NADPH, 37° C., 0-60 minutes; read-out: Rat microsomal metabolic half-life (t1/2)
metric: half-life at 1 µM

* COc1cc(F)ccc1C(O)CCC[C@@H](C)[C@H]1CC[C@H]2[C@@H]3CC[C@H]4[C@@H](O)[C@@H](O)CC[C@]4(C)[C@H]3CC[C@]12C (stereo partly drawn) [compound 306] | 1.74 h
* C[C@H](CCCC(C)(C)O)[C@H]1CC[C@H]2[C@H]3[C@H](CC[C@]12C)[C@@]1(C)CC[C@H](O)[C@H](O)[C@@H]1CC3(F)F [compound 274] | > 3.1 h
* C[C@H](CCCC(O)c1c(F)cccc1F)[C@H]1CC[C@H]2[C@@H]3CC[C@H]4[C@@H](O)[C@@H](O)CC[C@]4(C)[C@H]3CC[C@]12C (stereo partly drawn) [compound 284] | > 2 h
